Listed here: items and their measured IC50.
# test.target: IRAK4 (His-TEV-IRAK4) (Homo sapiens)
# Construct: His (N); TEV cleavage site (N)
# Sequence (Q9NWZ3 whole entry): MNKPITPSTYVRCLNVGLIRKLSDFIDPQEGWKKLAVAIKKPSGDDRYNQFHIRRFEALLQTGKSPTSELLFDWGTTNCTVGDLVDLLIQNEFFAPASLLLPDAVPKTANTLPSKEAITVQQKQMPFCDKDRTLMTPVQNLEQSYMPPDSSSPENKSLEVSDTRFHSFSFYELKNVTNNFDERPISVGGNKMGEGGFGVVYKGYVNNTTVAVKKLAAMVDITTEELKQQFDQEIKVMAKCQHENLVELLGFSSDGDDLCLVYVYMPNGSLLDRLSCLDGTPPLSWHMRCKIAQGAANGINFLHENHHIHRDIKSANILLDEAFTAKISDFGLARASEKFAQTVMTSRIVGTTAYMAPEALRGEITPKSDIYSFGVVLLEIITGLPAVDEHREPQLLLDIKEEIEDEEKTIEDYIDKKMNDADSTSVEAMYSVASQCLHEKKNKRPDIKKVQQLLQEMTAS
# experimental.protocol: IRAK4 enzymatic assay
# Format: biochemical
# conditions.used: human recombinant His-TEV-IRAK4, ATP 2 μM, STK1-biotin peptide 300 nM, 3 hours at 30° C., FlashPlate

These solved cases illustrate the format of a correct answer.
compound: CC1COCCC1N1CCC[C@H](n2cc(-c3cnc(-c4cccc(-c5cnn(C)c5)c4)nc3)cn2)C1 (stereo partly shown)
IC50: 100 to 1000 nM
--
compound: Cn1cc(-c2cccc(-c3ncc(-c4cnn(C5CCN(C(=O)OC(C)(C)C)CC5)c4)cn3)c2)cn1
IC50: 100 to 1000 nM
--
compound: Cn1cc(-c2cccc(-c3ncc(-c4cnn(C5CCCC(O)(CO)C5)c4)cn3)c2)cn1 (stereo not shown)
IC50: < 100 nM

Proceeding to the next compound to report its IC50.
Asked: Reported IC50, compound Cn1cc(-c2cccc(-c3ncc(-c4cnn([C@H]5CCC[C@H](NCCO)C5)c4)cn3)c2)cn1 (relative stereo) : ____
Given back: < 100 nM

* * *

# test.target: IRAK1 (His-TEV-IRAK1 (194-712)) (Homo sapiens)
# Construct: His-TEV-IRAK1 (194-712); His (N); TEV cleavage site (N)
# Sequence (P51617 194-712): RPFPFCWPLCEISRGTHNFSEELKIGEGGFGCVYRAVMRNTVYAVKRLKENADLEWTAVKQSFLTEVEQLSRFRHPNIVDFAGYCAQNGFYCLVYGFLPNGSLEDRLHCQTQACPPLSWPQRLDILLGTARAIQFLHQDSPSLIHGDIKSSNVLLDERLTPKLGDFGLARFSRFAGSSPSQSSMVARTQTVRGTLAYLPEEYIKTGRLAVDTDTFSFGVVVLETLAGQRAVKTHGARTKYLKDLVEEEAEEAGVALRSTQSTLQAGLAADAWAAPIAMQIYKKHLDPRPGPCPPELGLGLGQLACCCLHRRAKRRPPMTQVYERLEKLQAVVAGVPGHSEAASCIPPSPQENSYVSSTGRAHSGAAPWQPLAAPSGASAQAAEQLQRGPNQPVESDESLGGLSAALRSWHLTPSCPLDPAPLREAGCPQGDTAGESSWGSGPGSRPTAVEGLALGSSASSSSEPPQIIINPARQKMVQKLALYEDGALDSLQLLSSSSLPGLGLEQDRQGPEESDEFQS
# experimental.protocol: IRAK1 enzymatic assay
# conditions.used: human recombinant His-TEV-IRAK1, ATP 1 μM, 3 hours at 30° C., FlashPlate
pIC50: −log10 of the molar value.
Listed here: items and their measured pIC50.

molecule: Cn1cc(-c2cccc(-c3ncc(-c4cnn([C@H]5CCC[C@H](S(C)(=N)=O)C5)c4)cn3)c2)cn1 (relative stereo)
measurement.type: pIC50
reported.measurement: 6.00 to 7.00
--
molecule: Cn1nccc1-c1cccc(-c2ncc(-c3cnn([C@H]4CC[C@]5(CCC(=O)N5C)CC4)c3)cn2)c1
measurement.type: pIC50
reported.measurement: 4.70 to 6.00
--
molecule: O[C@H]1CC[C@H](n2cc(-c3cnc(-c4cccc(-c5cnn(C6CCNCC6)c5)c4)nc3)cn2)CC1
measurement.type: pIC50
reported.measurement: 4.70 to 6.00
--
molecule: CN1[C@H]2CC[C@@H]1C(F)[C@@H](n1cc(-c3cnc(-c4cccc(-c5cnn(C)c5)c4)nc3)cn1)C2 (some centres unmarked)
measurement.type: pIC50
reported.measurement: 6.00 to 7.00
--
molecule: Cn1cc(-c2cccc(-c3ncc(-c4cnn([C@H]5CCC[C@@H](N6CCOCC6)C5)c4)cn3)c2)cn1 (relative stereo)
measurement.type: pIC50
reported.measurement: 6.00 to 7.00

Proceeding to the next molecule to report its pIC50.
Asked: Reported pIC50, molecule Cn1cc(-c2cccc(-c3ncc(-c4cnn(CCNC(=O)OC(C)(C)C)c4)cn3)c2)cn1 : ____
Given back: 6.00 to 7.00

* * *

# test.target: IRAK1 (His-TEV-IRAK1 (194-712)) (Homo sapiens)
# Construct: His-TEV-IRAK1 (194-712); His (N); TEV cleavage site (N)
# experimental.protocol: IRAK1 enzymatic assay
# conditions.used: human recombinant His-TEV-IRAK1, ATP 1 μM, 3 hours at 30° C., FlashPlate
# Protocol: IRAK1 Enzymatic Assay IRAK1 is a human purified recombinant enzyme (His-TEV-IRAK1 (194-712)). In this assay, IRAK-1 hydrolyses ATP and autophosphorylates. Measurement of IRAK-1 inhibition was performed in streptavidin coated 384 well FlashPlate (PerkinElmer #SM[…]). […] Supernatant was discarded, plates were washed three times with 150 mM NaCl and radioactivity was then measured in a Microbeta Trilux reader.
Listed here: items and their measured IC50.

compound: C=CS(=O)(=O)N1CCC(n2cc(-c3cnc(-c4cccc(-c5cnn(C)c5)c4)nc3)cn2)CC1 [Compound 18]
measurement.type: IC50
reported.measurement: < 100 nM

Asked: Param readout= IC50; system= IRAK1 (His-TEV-IRAK1 (194-712)) (Homo sapiens); entry= Cn1cc(-c2cccc(-c3ncc(-c4cnn([C@H]5CCC[C@H](NCCO)C5)c4)cn3)c2)cn1 (relative stereo) [Compound 2] ; returns value.
Given back: 100 to 1000 nM

Asked: Also, C=CC(=O)N[C@@H]1CCC[C@H](n2cc(-c3cnc(-c4cccc(-c5cnn(C)c5)c4)nc3)cn2)C1 (relative stereo) [Compound 36] please.
Given back: < 100 nM

Asked: Also, Cn1cc(-c2cccc(-c3ncc(-c4cnn(C5CCN(C(=O)OC(C)(C)C)CC5)c4)cn3)c2)cn1 [Compound 8] please.
Given back: 100 to 1000 nM

Asked: Also, CC#CC(=O)N1CCC(n2cc(-c3cnc(-c4cccc(-c5cnn(C)c5)c4)nc3)cn2)CC1 [Compound 48] please.
Given back: < 100 nM

Asked: Also, Cn1cc(-c2cccc(-c3ncc(-c4cnn(C5CCC[C@@H](S(C)(=N)=O)C5)c4)cn3)c2)cn1 (stereo partly shown) [Compound 34] please.
Given back: 100 to 1000 nM

Asked: Also, Cn1cc(-c2cccc(-c3ncc(-c4cnn(C5CCC[C@@H](NC6CCOC6)C5)c4)cn3)c2)cn1 (stereo partly shown) [Compound 12] please.
Given back: < 100 nM
